Origin of the recorded values: patent US20250122223A1

Measured IC50, listed per entry.
study_system: USP7 (Homo sapiens (Human))
Sequence (Q93009 whole entry): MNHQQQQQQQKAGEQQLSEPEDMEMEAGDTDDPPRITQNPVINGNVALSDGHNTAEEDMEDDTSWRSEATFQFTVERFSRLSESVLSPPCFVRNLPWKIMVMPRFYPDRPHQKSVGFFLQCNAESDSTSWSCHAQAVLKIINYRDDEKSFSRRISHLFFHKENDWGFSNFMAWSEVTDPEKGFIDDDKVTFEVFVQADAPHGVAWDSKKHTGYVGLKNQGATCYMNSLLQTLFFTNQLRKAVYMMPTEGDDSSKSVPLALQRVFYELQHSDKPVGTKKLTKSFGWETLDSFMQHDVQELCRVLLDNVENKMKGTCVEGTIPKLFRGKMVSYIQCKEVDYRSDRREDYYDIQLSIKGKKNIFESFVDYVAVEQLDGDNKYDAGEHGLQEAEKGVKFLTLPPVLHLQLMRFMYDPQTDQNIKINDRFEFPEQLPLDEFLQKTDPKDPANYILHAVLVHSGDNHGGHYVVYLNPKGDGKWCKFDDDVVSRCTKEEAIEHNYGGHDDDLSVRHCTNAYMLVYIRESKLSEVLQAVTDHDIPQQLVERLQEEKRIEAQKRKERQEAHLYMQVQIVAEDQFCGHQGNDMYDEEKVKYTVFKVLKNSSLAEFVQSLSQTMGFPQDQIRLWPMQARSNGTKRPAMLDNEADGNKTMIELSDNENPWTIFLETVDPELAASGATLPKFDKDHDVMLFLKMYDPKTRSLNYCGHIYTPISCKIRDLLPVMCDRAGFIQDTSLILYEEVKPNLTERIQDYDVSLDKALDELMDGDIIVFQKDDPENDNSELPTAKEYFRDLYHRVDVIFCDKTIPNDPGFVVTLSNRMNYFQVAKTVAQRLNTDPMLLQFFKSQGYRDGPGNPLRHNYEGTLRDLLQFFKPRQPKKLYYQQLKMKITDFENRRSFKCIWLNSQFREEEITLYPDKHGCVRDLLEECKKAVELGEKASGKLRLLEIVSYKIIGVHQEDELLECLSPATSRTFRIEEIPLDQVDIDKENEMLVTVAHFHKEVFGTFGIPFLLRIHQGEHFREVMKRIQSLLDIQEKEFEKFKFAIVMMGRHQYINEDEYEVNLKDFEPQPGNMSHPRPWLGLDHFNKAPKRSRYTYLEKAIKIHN
experiment_summary: USP7 fluorescence polarisation (FP) assay with ubiquitin-Lys-TAMRA substrate
Type: biochemical
condition_info: biochemical inhibition; unit not given in Table 3b (Table 1 and key of Table 3a use μM); read-out: USP7 IC50 activity (Table 3b)
Experimental: USP7 activity was monitored in a fluorescence polarisation (FP) homogeneous assay using the isopeptide ubiquitin-Lys-TAMRA substrate (U-558, Boston Biochem). Full-length USP7 was purchased from Boston Biochem (His6-USP7FL, E-519). […] FP was measured every 5 min over a period of 1.5 h (within the linear range of the assay) using a Pherastar FSX (BMG Labtech) exciting at 530 nm and measuring the amount of parallel and perpendicular light at 575 nm. […]
Note: unit µM is implicit; provide only the numeric part.

Use the examples below as a reference point.
{"compound": "CC[C@@H]1CN[C@@H](c2ccc(-n3c(Cl)cc4c(=O)n(CC5(O)CCN(C(=O)C6(C)CC6)CC5)cnc43)cc2)CO1", "study_system": "USP7 (Homo sapiens (Human))", "IC50 / µM": 0.073}
{"compound": "C[C@@H]1CN[C@@H](c2ccc(-n3c(Cl)cc4c(=O)n(CC5(O)CCN(C(=O)[C@@]6(C)C[C@@H]6C(F)(F)F)CC5)cnc43)cc2)CO1", "study_system": "USP7 (Homo sapiens (Human))", "IC50 / µM": 0.182}
{"compound": "CC1(C(=O)N2CCC(O)(Cn3cnc4c(cc(Cl)n4-c4ccc(C5CNCCO5)cc4)c3=O)CC2)CC1 (stereo not drawn)", "study_system": "USP7 (Homo sapiens (Human))", "IC50 / µM": 0.158}

Problem: Output IC50 of C[C@H]1CN[C@H](c2ccc(-n3c(Cl)cc4c(=O)n(CC5(O)CCN(C(=O)c6ccc(F)cc6)CC5)cnc43)cc2)CO1
Solution: 0.108

Problem: Output IC50 of O=C(C[C@H](c1ccccc1)C(F)(F)F)N1CCC(O)(Cn2cnc3c(cc(Cl)n3-c3ccc([C@H]4COCCN4)cc3)c2=O)CC1 (single isomer, unassigned)
Solution: 0.016

Problem: Output IC50 of CN1CCOCC1c1ccc(-n2c(Cl)cc3c(=O)n(CC4(O)CCN(C(=O)C5(C)CC5)CC4)cnc32)cc1 (stereo not drawn)
Solution: 2.09
